Target: Amyloid-beta precursor protein (Homo sapiens)
Sequence (P05067 whole entry): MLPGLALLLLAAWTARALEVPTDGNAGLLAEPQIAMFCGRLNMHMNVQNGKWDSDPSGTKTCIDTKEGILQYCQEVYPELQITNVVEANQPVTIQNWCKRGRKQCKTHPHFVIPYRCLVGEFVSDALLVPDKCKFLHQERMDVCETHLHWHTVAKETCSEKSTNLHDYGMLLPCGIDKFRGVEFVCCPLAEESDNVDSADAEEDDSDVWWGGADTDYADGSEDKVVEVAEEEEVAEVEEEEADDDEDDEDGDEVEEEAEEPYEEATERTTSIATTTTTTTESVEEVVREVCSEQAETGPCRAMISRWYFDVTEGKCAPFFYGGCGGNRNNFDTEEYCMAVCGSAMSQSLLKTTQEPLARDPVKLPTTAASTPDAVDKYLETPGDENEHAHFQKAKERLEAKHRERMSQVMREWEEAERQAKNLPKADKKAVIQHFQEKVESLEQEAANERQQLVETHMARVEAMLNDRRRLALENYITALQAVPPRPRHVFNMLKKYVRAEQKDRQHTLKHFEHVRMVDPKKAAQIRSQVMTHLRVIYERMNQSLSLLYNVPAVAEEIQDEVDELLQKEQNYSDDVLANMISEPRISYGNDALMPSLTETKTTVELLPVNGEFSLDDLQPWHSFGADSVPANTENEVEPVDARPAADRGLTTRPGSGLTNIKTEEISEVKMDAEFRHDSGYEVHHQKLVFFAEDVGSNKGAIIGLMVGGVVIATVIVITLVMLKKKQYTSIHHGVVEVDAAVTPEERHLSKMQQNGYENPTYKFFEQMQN
Assay: Inhibition of human amyloid beta (1 to 42) self-induced aggregation after 24 hrs by Thioflavin T based fluorometric assay
Recorded pIC50 for the following compounds
A value of pIC50 is the negative decimal logarithm of a concentration given in moles per litre.

• CCN(CCCCNC(=O)c1cc(O)c(C(=O)NCCCCN(CC)Cc2ccccc2OC)cc1O)Cc1ccccc1OC = 5.52
• CCN(CCCCNC(=O)c1cc(O)c(C(=O)NCCCCN(CC)Cc2ccc(N(C)C)cc2)cc1O)Cc1ccc(N(C)C)cc1 = 5.50
• CN(CCCNC(=O)c1cc(O)c(C(=O)NCCCN(C)Cc2ccccc2)cc1O)Cc1ccccc1 = 5.40
• O=C(NCCCCN1CCOc2ccccc2C1)c1cc(O)c(C(=O)NCCCCN2CCOc3ccccc3C2)cc1O = 5.26
• CCN(CCCCNC(=O)c1cc(O)c(C(=O)NCCCCN(CC)Cc2ccccc2N(C)C)cc1O)Cc1ccccc1N(C)C = 5.43

Entry CN(CCCCCCNC(=O)c1cc(O)c(C(=O)NCCCCCCN(C)Cc2ccccc2)cc1O)Cc1ccccc1 has what pIC50?
5.63

// returns reported pIC50 for input CCN(CCCCNC(=O)c1cc(O)c(C(=O)NCCCCN(CC)Cc2ccccc2)cc1O)Cc1ccccc1
5.41

What value of pIC50 has been reported for the following compound? COc1ccccc1CN(C)CCCCNC(=O)c1cc(O)c(C(=O)NCCCCN(C)Cc2ccccc2OC)cc1O
5.46

Which pIC50 value is on record for CCN(CCCCCCNC(=O)c1cc(O)c(C(=O)NCCCCCCN(CC)Cc2ccccc2OC)cc1O)Cc1ccccc1OC ?
5.48

---

Target: Butyrylcholinesterase (Rattus norvegicus)
Sequence (Q9JKC1 whole entry): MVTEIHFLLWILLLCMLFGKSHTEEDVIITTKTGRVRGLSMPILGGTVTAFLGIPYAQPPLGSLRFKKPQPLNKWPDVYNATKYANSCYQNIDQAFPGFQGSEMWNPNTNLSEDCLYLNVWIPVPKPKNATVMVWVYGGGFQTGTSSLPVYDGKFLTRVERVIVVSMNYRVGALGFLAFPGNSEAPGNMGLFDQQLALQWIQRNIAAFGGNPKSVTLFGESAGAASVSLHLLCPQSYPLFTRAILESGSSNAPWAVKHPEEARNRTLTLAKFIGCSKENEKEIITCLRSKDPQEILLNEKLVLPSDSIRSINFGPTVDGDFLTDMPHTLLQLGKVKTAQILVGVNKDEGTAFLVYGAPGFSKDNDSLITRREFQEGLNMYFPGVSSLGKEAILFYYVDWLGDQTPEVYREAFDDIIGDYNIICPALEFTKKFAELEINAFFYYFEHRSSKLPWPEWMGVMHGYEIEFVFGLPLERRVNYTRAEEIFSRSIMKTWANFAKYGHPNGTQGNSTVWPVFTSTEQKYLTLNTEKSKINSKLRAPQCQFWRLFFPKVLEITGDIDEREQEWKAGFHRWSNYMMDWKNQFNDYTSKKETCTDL
Test: Inhibition of rat serum BuChE using butyrylthiocholine iodide as substrate after 15 mins by Ellman's method
Below is a list of entries, each paired with its recorded IC50 value.

Guide cases for IC50, answers given:
* CCOC(=O)c1cc(O)c(C(=O)OCC)cc1O | > 100 µM
* O=C(NCCCCN1CCOc2ccccc2C1)c1cc(O)c(C(=O)NCCCCN2CCOc3ccccc3C2)cc1O | > 100 µM
* O=C(O)c1cc(O)c(C(=O)O)cc1O | > 100 µM
* COc1ccccc1CN(C)CCCCCCNC(=O)c1cc(O)c(C(=O)NCCCCCCN(C)Cc2ccccc2OC)cc1O | 40.5 µM

Consider the record given below.
Look up IC50 for this molecule: CN(CCCCNC(=O)c1cc(O)c(C(=O)NCCCCN(C)Cc2ccccc2)cc1O)Cc1ccccc1
> 100 µM

---

Molecular target: Acetylcholinesterase (Rattus norvegicus, UniProt P37136)
Sequence (P37136 whole entry): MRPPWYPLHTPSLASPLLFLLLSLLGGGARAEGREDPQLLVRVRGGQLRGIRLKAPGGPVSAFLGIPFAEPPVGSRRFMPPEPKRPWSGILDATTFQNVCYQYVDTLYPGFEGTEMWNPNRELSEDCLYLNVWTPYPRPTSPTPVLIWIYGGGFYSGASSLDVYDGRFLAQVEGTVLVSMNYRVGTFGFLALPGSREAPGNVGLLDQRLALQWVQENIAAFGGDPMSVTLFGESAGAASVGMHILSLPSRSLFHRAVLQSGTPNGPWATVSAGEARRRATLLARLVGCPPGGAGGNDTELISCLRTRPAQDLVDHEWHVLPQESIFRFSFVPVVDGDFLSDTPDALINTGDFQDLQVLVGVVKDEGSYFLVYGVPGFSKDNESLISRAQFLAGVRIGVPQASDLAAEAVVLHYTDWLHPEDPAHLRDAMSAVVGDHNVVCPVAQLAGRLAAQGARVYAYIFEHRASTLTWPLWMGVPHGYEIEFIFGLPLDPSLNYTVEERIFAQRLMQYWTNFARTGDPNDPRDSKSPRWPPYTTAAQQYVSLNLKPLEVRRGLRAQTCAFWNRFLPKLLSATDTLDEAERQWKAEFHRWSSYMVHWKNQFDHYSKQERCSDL
Assay: Inhibition of rat cortex AChE using acetylthiocholine iodide as substrate after 15 mins by Ellman's method
pIC50: −log10 of the molar value.
Could you label it condition met if measured pIC50 is 5 or higher, and condition not met otherwise?

Worked examples follow.
• O=C(O)c1cc(O)c(C(=O)O)cc1O = condition not met
• CN(CCCCCCNC(=O)c1cc(O)c(C(=O)NCCCCCCN(C)Cc2ccccc2)cc1O)Cc1ccccc1 = condition met
• CCN(CCCNC(=O)c1cc(O)c(C(=O)NCCCN(CC)Cc2ccccc2OC)cc1O)Cc1ccccc1OC = condition met
• CCN(CCCCNC(=O)c1cc(O)c(C(=O)NCCCCN(CC)Cc2ccccc2OC)cc1O)Cc1ccccc1OC = condition met
• CCN(CCCCCCNC(=O)c1cc(O)c(C(=O)NCCCCCCN(CC)Cc2ccccc2)cc1O)Cc1ccccc1 = condition met
• CCN(CCCCNC(=O)c1cc(O)c(C(=O)NCCCCN(CC)Cc2ccccc2)cc1O)Cc1ccccc1 = condition met

Now look at this entry.
Does pIC50 meet or surpass 5 for CCN(CCCCNC(=O)c1cc(O)c(C(=O)NCCCCN(CC)Cc2ccc(N(C)C)cc2)cc1O)Cc1ccc(N(C)C)cc1 ?
condition not met
